Data provenance: ChEMBL document CHEMBL1909294

In what follows, each item is paired with its HepSE_Combined Scores for Hepatotoxicity.
PARAMETER: HepSE_Combined Scores

CN(C)CC/C=C1/c2ccccc2COc2ccc(CC(=O)O)cc21 [OLOPATADINE]: 0
CNC1=Nc2ccc(Cl)cc2C(c2ccccc2)=[N+]([O-])C1 [CHLORDIAZEPOXIDE]: 1
C=C1CC[C@H](O)C/C1=C/C=C1\CCC[C@]2(C)[C@@H]([C@H](C)CCCC(C)C)CC[C@@H]12 [CHOLECALCIFEROL]: 0
C[C@@H]1O[C@@H]1P(=O)(O)O [FOSFOMYCIN]: 2
Nc1ccc(O)c(C(=O)O)c1 [MESALAMINE]: 8

* * *

Hepatotoxicity measurements of HepSE_cholelithiasis, listed per entry.
PARAMETER: HepSE_cholelithiasis

CCOc1nc2cccc(C(=O)O)c2n1Cc1ccc(-c2ccccc2-c2nnn[nH]2)cc1: 1
Cc1cccc(C)c1NC(=O)C1CCCCN1C (stereo not drawn) [MEPIVACAINE]: 0
CCCC(C)C1(CC)C(=O)NC(=O)NC1=O (stereo not drawn): 0
COc1ccc2c(c1)c(CC(=O)O)c(C)n2C(=O)c1ccc(Cl)cc1: 0
CC(C)C(=O)Nc1ccc([N+](=O)[O-])c(C(F)(F)F)c1 [FLUTAMIDE]: 0
COC(=O)N[C@H](C(=O)N[C@@H](Cc1ccccc1)[C@@H](O)CN(Cc1ccc(-c2ccccn2)cc1)NC(=O)[C@@H](NC(=O)OC)C(C)(C)C)C(C)(C)C: 1
CCc1c2c(nc3ccc(OC(=O)N4CCC(N5CCCCC5)CC4)cc13)-c1cc3c(c(=O)n1C2)COC(=O)[C@]3(O)CC: 0
COC1=CC(=O)C[C@@H](C)[C@]12Oc1c(Cl)c(OC)cc(OC)c1C2=O: 0

* * *

Below are HepSE_hepatic failure values measured for Hepatotoxicity.
*1 amine or outer side, *2 acyl side, *3 side chain or, on linkers, in order; H or OH if unused. Where a SMILES comes first, the peptide text is derived from it. Bridges are numbered along the chain shown (N, C = ends). [ ]: non-standard residue; d: D form. The star is where a group is joined. ξ: configuration not given here. X2 = N=C1NCCC([C@H](N[*:1])C(=O)[*:2])N1; ΔAla(Z-3-ureido) = NC(=O)N/C=C(\N)C(=O)O; ξβ3hOrn = NCCCC(N)CC(=O)*; Dap = NC[C@H](N)C(=O)O
PARAMETER: HepSE_hepatic failure

CN(C)CCOc1ccc(/C(=C(/CCCl)c2ccccc2)c2ccccc2)cc1: 0
CN(C/C=C/C#CC(C)(C)C)Cc1cccc2ccccc12: 1
CC(=O)N(CC(O)CN(C(C)=O)c1c(I)c(C(=O)NCC(O)CO)c(I)c(C(=O)NCC(O)CO)c1I)c1c(I)c(C(=O)NCC(O)CO)c(I)c(C(=O)NCC(O)CO)c1I (stereo unspecified): 0
O=[N+]([O-])O[C@@H]1CO[C@H]2[C@@H]1OC[C@@H]2O [ISOSORBIDE MONONITRATE]: 0
CO[C@@]1(NC(=O)Cc2cccs2)C(=O)N2C(C(=O)O)=C(COC(N)=O)CS[C@@H]21: 0
C[C@@H]1NC(=O)[C@@H](N)CNC(=O)[C@H](C2CCNC(=N)N2)NC(=O)/C(=C/NC(N)=O)NC(=O)[C@H](CNC(=O)CC(N)CCCN)NC1=O.N=C1NCCC([C@@H]2NC(=O)/C(=C/NC(N)=O)NC(=O)[C@H](CNC(=O)CC(N)CCCN)NC(=O)[C@H](CO)NC(=O)[C@@H](N)CNC2=O)N1 (stereo partly drawn) [CAPREOMYCIN] (H-[Dap]S[Dap](ξβ3hOrn)[ΔAla(Z-3-ureido)][X2]; lactam 1-C): 0
